Give measured enrichment ratio for each item. Keep answers brief.
B1: PhoQ; a variant is named by its letters at X, in order, P23837 (parent)
chain: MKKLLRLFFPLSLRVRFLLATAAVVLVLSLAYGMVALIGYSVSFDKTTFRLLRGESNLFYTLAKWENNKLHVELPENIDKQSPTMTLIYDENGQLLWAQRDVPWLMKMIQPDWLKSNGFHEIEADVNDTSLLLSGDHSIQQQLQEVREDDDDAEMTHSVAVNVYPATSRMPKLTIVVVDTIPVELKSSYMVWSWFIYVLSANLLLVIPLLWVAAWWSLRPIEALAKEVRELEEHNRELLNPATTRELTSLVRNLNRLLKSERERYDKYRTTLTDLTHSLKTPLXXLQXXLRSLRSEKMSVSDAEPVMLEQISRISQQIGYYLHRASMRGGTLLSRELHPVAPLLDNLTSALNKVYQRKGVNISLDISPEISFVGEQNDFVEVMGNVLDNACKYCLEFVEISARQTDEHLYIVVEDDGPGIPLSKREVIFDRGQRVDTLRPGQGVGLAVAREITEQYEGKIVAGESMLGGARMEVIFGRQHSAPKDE

Variants of: B1
methodSummary: enrichment ratio after two sorts for PhoP signalling (ratio (wild type AVST 3.29)); higher = more functional
testContext: with PhoP (E. coli)
In all, about 140,000 sequences were measured (“enrichment ratio after two sorts for PhoP signalling”: median about 0, highest 2% from about 11 on). Shown is part of a subset that was picked to be rich in the highest values.
Keep it simple and answer with nothing but the number.

Requested field: enrichment ratio. Item: SNVG
3.21

Requested field: enrichment ratio. Item: SNVC
11.5

Requested field: enrichment ratio. Item: QSWG
18

Requested field: enrichment ratio. Item: QSDS
20.8

Requested field: enrichment ratio. Item: QADY
11.7
